Each recorded value in this set is attributed to patent US8722732B2.

- method_description: Hydrolysis / pharmacokinetics in an in vivo dog study
- measurement_conditions: male, beagle, plasma, po, 10 mg/kg
measurement_label: AUC (ng·h/mL)
Give bare numbers, in ng·h/mL.

# return recorded AUC for input C[C@@H](NCCCc1cccc(C(F)(F)F)c1)c1cccc2ccccc12 [cinacalcet]
17.8

====

- method_description: Hydrolysis / pharmacokinetics in an in vivo dog study
- measurement_conditions: male, beagle, plasma, po, 10 mg/kg
measurement_label: Vd/F (L/kg)
Give bare numbers, in L/kg.

# return recorded Vd/F for input C[C@@H](NCCCc1cccc(C(F)(F)F)c1)c1cccc2ccccc12 [cinacalcet]
294
